Target: β2-receptors on the blood vessels (Rattus norvegicus, UniProt P10608)
Construct: was tested on rats, weighing 230-280 g, under urethane narcosis; from tissue; host or cells: blood vessels in the living rat under urethane narcosis (in vivo)
Sequence (P10608 whole entry): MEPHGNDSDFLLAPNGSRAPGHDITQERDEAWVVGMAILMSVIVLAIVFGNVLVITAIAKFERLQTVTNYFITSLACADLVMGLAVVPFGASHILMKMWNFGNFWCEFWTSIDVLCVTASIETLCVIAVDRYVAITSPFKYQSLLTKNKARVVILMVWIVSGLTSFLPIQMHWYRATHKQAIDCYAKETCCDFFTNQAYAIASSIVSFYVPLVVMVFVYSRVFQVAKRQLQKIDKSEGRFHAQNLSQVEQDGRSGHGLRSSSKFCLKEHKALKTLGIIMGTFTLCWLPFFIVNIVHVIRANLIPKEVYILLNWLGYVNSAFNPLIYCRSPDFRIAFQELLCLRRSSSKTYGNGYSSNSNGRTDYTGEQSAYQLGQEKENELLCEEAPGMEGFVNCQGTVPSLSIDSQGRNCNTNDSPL
Assay: β2-sympatholytic action: inhibition of Isoproterenol blood pressure reduction, rats under urethane narcosis
Assay type: in vivo
Settings: quotient defined in footnote 6 (drawing 8); cardioselectivity, β2 versus β1 dose
Structures can show the parent of a compound that is named as a salt.
Param threshold (7) applies to Q; output condition met when value >= threshold, condition not met when value < threshold.

hey, is Q for this one >= 7? CC(C)NCC(O)COc1cccc2sncc12 (centres unmarked) [Example 1, hydrochloride] condition not met

hey, is Q for this one >= 7? CC(C)(C)NCC(O)COc1cccc2sncc12 (centres unmarked) [Example 2, hydrochloride] condition not met

hey, is Q for this one >= 7? CCCC(C)NCC(O)COc1cccc2sncc12 (centres unmarked) [Example 35] condition met

hey, is Q for this one >= 7? CCC(C)(C)NCC(O)COc1cccc2sncc12 (centres unmarked) [Example 15] condition not met

###

Target: β2-receptors on the blood vessels (Rattus norvegicus, UniProt P10608)
Construct: was tested on rats, weighing 230-280 g, under urethane narcosis; from tissue; host or cells: blood vessels in the living rat under urethane narcosis (in vivo)
Test: β2-sympatholytic action: inhibition of Isoproterenol blood pressure reduction, rats under urethane narcosis
Format: in vivo
Details: rat, iv, read-out: β2-Sympatholytic action ED 50 (dose which inhibits the Isoproterenol blood pressure reduction by 50%)
Counter-ions that a name gives are not always drawn.
reported-property: ED50 (µg/kg)
Output spec: scalar in µg/kg, unitless text.

What measured ED50 goes with C#CC(C)(C)NCC(O)COc1cccc2sncc12 (centres unmarked) [Example 27] ? 5.75

What measured ED50 goes with CCC(C)(C)NCC(O)COc1cccc2sncc12 (centres unmarked) [Example 15] ? 8.24

What measured ED50 goes with CC(C)(C)NCC(O)COc1cccc2sncc12 (centres unmarked) [Example 2, hydrochloride] ? 4.02

What measured ED50 goes with CCCC(C)NCC(O)COc1cccc2sncc12 (centres unmarked) [Example 35] ? 27

What measured ED50 goes with CCC(C)NCC(O)COc1cccc2sncc12 (centres unmarked) [Example 14] ? 10.6

What measured ED50 goes with CC(C)NCC(O)COc1cccc2sncc12 (centres unmarked) [Example 1, hydrochloride] ? 4.2

What measured ED50 goes with COCC(C)NCC(O)COc1cccc2sncc12 (centres unmarked) [Example 29] ? 44

What measured ED50 goes with CCC(C)(CC)NCC(O)COc1cccc2sncc12 (centres unmarked) [Example 16] ? 12.1

###

Assay: in vivo
Conditions: mouse
Structures can show the parent of a compound that is named as a salt.
reported-property: Therapeutic range, relative
Returns: the value as a bare number; no unit string appended.

What measured Therapeutic range, relative goes with C#CC(C)(C)NCC(O)COc1cccc2sncc12 (centres unmarked) ? 9.11

What measured Therapeutic range, relative goes with CC(C)NCC(O)COc1cccc2sncc12 (centres unmarked) [Example 1, hydrochloride] ? 3.72

What measured Therapeutic range, relative goes with CC(C)(C)NCC(O)COc1cccc2sncc12 (centres unmarked) [Example 2, hydrochloride] ? 10.76

What measured Therapeutic range, relative goes with CCC(C)(CC)NCC(O)COc1cccc2sncc12 (centres unmarked) ? 4.44

What measured Therapeutic range, relative goes with CCC(C)(C)NCC(O)COc1cccc2sncc12 (centres unmarked) ? 8.92

What measured Therapeutic range, relative goes with COCC(C)NCC(O)COc1cccc2sncc12 (centres unmarked) ? 3.11

What measured Therapeutic range, relative goes with CCC(C)NCC(O)COc1cccc2sncc12 (centres unmarked) ? 7.18

What measured Therapeutic range, relative goes with CCCC(C)NCC(O)COc1cccc2sncc12 (centres unmarked) ? 2.72

###

Assign Q to each entry below.
Molecular target: β2-receptors on the blood vessels (Rattus norvegicus)
Construct: was tested on rats, weighing 230-280 g, under urethane narcosis; from tissue; host or cells: blood vessels in the living rat under urethane narcosis (in vivo)
Assay: β2-sympatholytic action: inhibition of Isoproterenol blood pressure reduction, rats under urethane narcosis
Assay type: in vivo
Details: quotient defined in footnote 6 (drawing 8); cardioselectivity, β2 versus β1 dose
Returns: the value as a bare number; no unit string appended.

Write down the reported Q of CCC(C)(CC)NCC(O)COc1cccc2sncc12 (stereo not drawn) , test system: β2-receptors on the blood vessels (Rattus norvegicus). 3.69

Write down the reported Q of COCC(C)NCC(O)COc1cccc2sncc12 (stereo not drawn) , test system: β2-receptors on the blood vessels (Rattus norvegicus). 8.90

Write down the reported Q of C#CC(C)(C)NCC(O)COc1cccc2sncc12 (stereo not drawn) , test system: β2-receptors on the blood vessels (Rattus norvegicus). 2.50

###

Molecular target: cardiac β1-receptors (Rattus norvegicus, UniProt P18090)
Construct: in pithed rats (Sprague-Dawley, Mus rattus; weight 230-280 g) causes increases in pulse rate; from tissue; host or cells: heart in the living pithed Sprague-Dawley rat (in vivo)
Sequence (P18090 whole entry): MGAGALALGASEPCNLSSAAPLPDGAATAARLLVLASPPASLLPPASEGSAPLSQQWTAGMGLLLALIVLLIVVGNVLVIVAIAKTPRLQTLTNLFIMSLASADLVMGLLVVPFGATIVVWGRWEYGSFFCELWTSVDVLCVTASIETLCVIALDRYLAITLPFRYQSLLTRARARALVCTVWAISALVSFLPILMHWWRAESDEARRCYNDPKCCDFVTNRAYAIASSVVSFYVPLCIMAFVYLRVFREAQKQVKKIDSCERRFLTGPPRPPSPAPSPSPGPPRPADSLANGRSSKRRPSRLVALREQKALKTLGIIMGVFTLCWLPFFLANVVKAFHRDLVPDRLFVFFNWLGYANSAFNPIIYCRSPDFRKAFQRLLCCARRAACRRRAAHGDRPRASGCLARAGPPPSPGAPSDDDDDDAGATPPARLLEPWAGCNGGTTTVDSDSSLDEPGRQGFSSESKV
Experiment: β1-sympatholytic action: inhibition of Isoproterenol tachycardia, pithed rats
Type: in vivo, rats (Sprague-Dawley
Settings: rat, iv, 5 min, read-out: β1-Sympatholytic action ED 50 (dose which inhibits the Isoproterenol tachycardia by 50%)
Where a name gives a salt, the structure may show the parent alone.
reported-property: ED50
Number first, unit second.

What measured ED50 goes with COCC(C)NCC(O)COc1cccc2sncc12 (centres unmarked) ? 4.95 µg/kg

What measured ED50 goes with C#CC(C)(C)NCC(O)COc1cccc2sncc12 (centres unmarked) ? 2.3 µg/kg

What measured ED50 goes with CCC(C)(C)NCC(O)COc1cccc2sncc12 (centres unmarked) ? 1.84 µg/kg

What measured ED50 goes with CC(C)NCC(O)COc1cccc2sncc12 (centres unmarked) [Example 1, hydrochloride] ? 1.9 µg/kg

What measured ED50 goes with CCC(C)(CC)NCC(O)COc1cccc2sncc12 (centres unmarked) ? 3.28 µg/kg

What measured ED50 goes with CC(C)(C)NCC(O)COc1cccc2sncc12 (centres unmarked) [Example 2, hydrochloride] ? 1.63 µg/kg

What measured ED50 goes with CCC(C)NCC(O)COc1cccc2sncc12 (centres unmarked) ? 1.53 µg/kg

What measured ED50 goes with CCCC(C)NCC(O)COc1cccc2sncc12 (centres unmarked) ? 2.52 µg/kg

###

Assign β2-Sympatholytic action R.A. (relative activity) to each entry below.
Target: β2-receptors on the blood vessels (Rattus norvegicus, UniProt P10608)
Construct: was tested on rats, weighing 230-280 g, under urethane narcosis; from tissue; host or cells: blood vessels in the living rat under urethane narcosis (in vivo)
Test: β2-sympatholytic action: inhibition of Isoproterenol blood pressure reduction, rats under urethane narcosis
Format: in vivo
Settings: Propranolol = 1.00; rats under urethane narcosis, intravenous
Where a name gives a salt, the structure may show the parent alone.

What measured β2-Sympatholytic action R.A. (relative activity) goes with CC(C)(C)NCC(O)COc1cccc2sncc12 (centres unmarked) [Example 2, hydrochloride] ? 2.84

What measured β2-Sympatholytic action R.A. (relative activity) goes with CC(C)NCC(O)COc1cccc2sncc12 (centres unmarked) [Example 1, hydrochloride] ? 2.71

What measured β2-Sympatholytic action R.A. (relative activity) goes with CCC(C)NCC(O)COc1cccc2sncc12 (centres unmarked) ? 1.08

What measured β2-Sympatholytic action R.A. (relative activity) goes with CCC(C)(CC)NCC(O)COc1cccc2sncc12 (centres unmarked) ? 0.94

What measured β2-Sympatholytic action R.A. (relative activity) goes with COCC(C)NCC(O)COc1cccc2sncc12 (centres unmarked) ? 0.26

What measured β2-Sympatholytic action R.A. (relative activity) goes with CCCC(C)NCC(O)COc1cccc2sncc12 (centres unmarked) ? 0.42

What measured β2-Sympatholytic action R.A. (relative activity) goes with CCC(C)(C)NCC(O)COc1cccc2sncc12 (centres unmarked) ? 1.38

What measured β2-Sympatholytic action R.A. (relative activity) goes with C#CC(C)(C)NCC(O)COc1cccc2sncc12 (centres unmarked) ? 1.98

###

Assay: in vivo
Conditions: mouse
Assign selectivity ratio to each entry below.
Returns: the value as a bare number; no unit string appended.

What measured selectivity ratio goes with C#CC(C)(C)NCC(O)COc1cccc2sncc12 (stereo not drawn) ? 80000

What measured selectivity ratio goes with CCCC(C)NCC(O)COc1cccc2sncc12 (stereo not drawn) ? 23900

What measured selectivity ratio goes with COCC(C)NCC(O)COc1cccc2sncc12 (stereo not drawn) ? 27300

What measured selectivity ratio goes with CCC(C)(CC)NCC(O)COc1cccc2sncc12 (stereo not drawn) ? 39000

What measured selectivity ratio goes with CCC(C)(C)NCC(O)COc1cccc2sncc12 (stereo not drawn) ? 78300

What measured selectivity ratio goes with CCC(C)NCC(O)COc1cccc2sncc12 (stereo not drawn) ? 63000

###

Biological target: cardiac β1-receptors (Rattus norvegicus)
Construct: in pithed rats (Sprague-Dawley, Mus rattus; weight 230-280 g) causes increases in pulse rate; from tissue; host or cells: heart in the living pithed Sprague-Dawley rat (in vivo)
Test: β1-sympatholytic action: inhibition of Isoproterenol tachycardia, pithed rats
Type: in vivo, rats (Sprague-Dawley
Details: Propranolol = 1.00; pithed rats, intravenous
Where a name gives a salt, the structure may show the parent alone.
reported-property: β1-Sympatholytic action R.A. (relative activity)
Returns: the value as a bare number; no unit string appended.

What measured β1-Sympatholytic action R.A. (relative activity) goes with CC(C)(C)NCC(O)COc1cccc2sncc12 (centres unmarked) [Example 2, hydrochloride] ? 7.55

What measured β1-Sympatholytic action R.A. (relative activity) goes with COCC(C)NCC(O)COc1cccc2sncc12 (centres unmarked) [Example 29] ? 2.48

What measured β1-Sympatholytic action R.A. (relative activity) goes with CCC(C)NCC(O)COc1cccc2sncc12 (centres unmarked) [Example 14] ? 8.04

What measured β1-Sympatholytic action R.A. (relative activity) goes with C#CC(C)(C)NCC(O)COc1cccc2sncc12 (centres unmarked) [Example 27] ? 5.35

What measured β1-Sympatholytic action R.A. (relative activity) goes with CCC(C)(C)NCC(O)COc1cccc2sncc12 (centres unmarked) [Example 15] ? 6.68

What measured β1-Sympatholytic action R.A. (relative activity) goes with CCC(C)(CC)NCC(O)COc1cccc2sncc12 (centres unmarked) [Example 16] ? 3.75

What measured β1-Sympatholytic action R.A. (relative activity) goes with CC(C)NCC(O)COc1cccc2sncc12 (centres unmarked) [Example 1, hydrochloride] ? 6.47

What measured β1-Sympatholytic action R.A. (relative activity) goes with CCCC(C)NCC(O)COc1cccc2sncc12 (centres unmarked) [Example 35] ? 4.88
